# Test system: Scenedesmus obliquus
# Test method notes: Effect of hormone concentrations on growth rate of Scenedesmus obliquus, heterotrophic
# Format: cell-based
# Conditions used: 0.01 ng, 48 hours, control 0.35
Measure name: growth rate
Give bare numbers.

GET /values?readout=growth rate&item= `O=C(O)COc1ccc(Cl)cc1Cl` 0.28

Quick one: `c1coc(CNc2ncnc3[nH]cnc23)c1` 0.28

Give measured growth rate for every item shown.
1. C=C1C[C@]23C[C@@]1(O)CC[C@H]2[C@@]12C=C[C@H](O)[C@@](C)(C(=O)O1)[C@H]2[C@@H]3C(=O)O
2. c1ccc(CNc2ncnc3nc[nH]c23)cc1
3. O=C(O)Cc1cccc2ccccc12
4. O=C(O)Cc1c[nH]c2ccccc12

1. 0.44
2. 0.28
3. 0.26
4. 0.23

====

# Tested on: Chlorella protothecoides
# Test method notes: Effect of hormone concentrations on growth rate of Chlorella protothecoides, photoheterotrophic
# Type: cell-based
# Conditions used: 0.01 ng, 48 hours, control 1.05
Answer each item with its documented growth rate.
Numbers only.

Give measured growth rate for every item shown.
1. O=C(O)Cc1cccc2ccccc12
2. c1ccc(CNc2ncnc3nc[nH]c23)cc1
3. O=C(O)COc1ccc(Cl)cc1Cl
4. C=C1C[C@]23C[C@@]1(O)CC[C@H]2[C@@]12C=C[C@H](O)[C@@](C)(C(=O)O1)[C@H]2[C@@H]3C(=O)O

1. 1.00
2. 1.00
3. 1.09
4. 1.06

Give measured growth rate for every item shown.
1. O=C(O)Cc1c[nH]c2ccccc12
2. c1coc(CNc2ncnc3[nH]cnc23)c1

[1.06, 1.08]

Cited source for all entries: patent US20210307272A1
